molecular target: human serum albumin Cys-34 (Homo sapiens, UniProt P02768); test: Conjugation of activated disulfide-MMAE molecules to human serum albumin (Conjugate Ratio, LC/MS); settings: disulfide MMAE compound at 10 molar equivalents relative to HSA, 75 mM Tris pH 8.5, ~16 hours at room temperature
Sequence (P02768 25-609): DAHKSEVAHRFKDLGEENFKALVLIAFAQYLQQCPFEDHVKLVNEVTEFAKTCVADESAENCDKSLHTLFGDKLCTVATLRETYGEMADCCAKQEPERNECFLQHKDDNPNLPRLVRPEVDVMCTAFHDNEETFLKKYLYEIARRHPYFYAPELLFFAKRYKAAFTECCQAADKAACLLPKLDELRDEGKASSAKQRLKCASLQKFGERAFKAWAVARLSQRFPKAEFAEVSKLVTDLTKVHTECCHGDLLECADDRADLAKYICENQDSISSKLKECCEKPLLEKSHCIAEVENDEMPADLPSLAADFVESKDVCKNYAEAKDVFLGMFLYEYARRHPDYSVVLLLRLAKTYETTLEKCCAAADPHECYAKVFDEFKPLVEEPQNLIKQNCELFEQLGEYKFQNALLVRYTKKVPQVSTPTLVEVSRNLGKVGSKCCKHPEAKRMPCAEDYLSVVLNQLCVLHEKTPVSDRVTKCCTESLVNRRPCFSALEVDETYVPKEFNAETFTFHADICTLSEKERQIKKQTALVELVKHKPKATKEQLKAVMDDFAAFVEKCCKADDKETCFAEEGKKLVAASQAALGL
Where a SMILES comes first, the peptide text is derived from it. [ ]: non-standard residue; d: D form. The star is where a group is joined. Dolaproine = CO[C@@H]([C@@H]1CCCN1)[C@@H](C)C(=O)O; X3 = CC(C)(COC(=O)*)SSc1ccc([N+](=O)[O-])cn1; Dil = CC[C@H](C)[C@H](NC)[C@@H](CC(=O)O)OC; X8 = CC(C)(COC(=O)*)SSc1nc2nccnc2[nH]1; X2 = C[C@@H](N*)[C@@H](O)c1ccccc1; X21 = CC(C)(COC(=O)*)SSc1ncc[nH]1; X18 = CC(C)(COC(=O)*)SSC(=N)N; NMeV = CN[C@H](C(=O)O)C(C)C
Kindly state HAS CR (HSA Conjugation Ratio) for each of the entries shown.
Please respond with just the number, no unit label.

Give me measured HAS CR (HSA Conjugation Ratio), please, for this compound: CC[C@H](C)[C@@H]([C@@H](CC(=O)N1CCC[C@H]1[C@H](OC)[C@@H](C)C(=O)N[C@H](C)[C@@H](O)c1ccccc1)OC)N(C)C(=O)[C@@H](NC(=O)[C@H](C(C)C)N(C)C(=O)OCC(C)(C)SSc1ccc([N+](=O)[O-])cn1)C(C)C (X3-[NMeV]V[Dil][Dolaproine]-X2)
0.11

Give me measured HAS CR (HSA Conjugation Ratio), please, for this compound: CC[C@H](C)[C@@H]([C@@H](CC(=O)N1CCC[C@H]1[C@H](OC)[C@@H](C)C(=O)N[C@H](C)[C@@H](O)c1ccccc1)OC)N(C)C(=O)[C@@H](NC(=O)[C@H](C(C)C)N(C)C(=O)OCC(C)(C)SSc1ncc[nH]1)C(C)C (X21-[NMeV]V[Dil][Dolaproine]-X2)
0.99

Give me measured HAS CR (HSA Conjugation Ratio), please, for this compound: CC[C@H](C)[C@@H]([C@@H](CC(=O)N1CCC[C@H]1[C@H](OC)[C@@H](C)C(=O)N[C@H](C)[C@@H](O)c1ccccc1)OC)N(C)C(=O)[C@@H](NC(=O)[C@H](C(C)C)N(C)C(=O)OCC(C)(C)SSc1nc2nccnc2[nH]1)C(C)C (X8-[NMeV]V[Dil][Dolaproine]-X2)
0.63

Give me measured HAS CR (HSA Conjugation Ratio), please, for this compound: CC[C@H](C)[C@@H]([C@@H](CC(=O)N1CCC[C@H]1[C@H](OC)[C@@H](C)C(=O)N[C@H](C)[C@@H](O)c1ccccc1)OC)N(C)C(=O)[C@@H](NC(=O)[C@H](C(C)C)N(C)C(=O)OCC(C)(C)SSC(=N)N)C(C)C (X18-[NMeV]V[Dil][Dolaproine]-X2)
0.98
